viability, T/C values by entry
- Test system: 485176-168-R4-J1-PDC spheroids with HUVEC/MSC, viability;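 further: spheroids exposed to compounds for seven days before readout; percent viability relative to DMSO vehicle control wells as 100%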
- ASSAY: Anticancer human tumor 485176-168-R4-J1-PDC patient-derived pancreatic adenocarcinoma cell line growth inhibition [GQUAD]
- EXPERIMENTAL SETUP: second compound 0.0316 µM; first compound 1 µM; hits give low values
Value expressed in %; do not type the unit.

q: Fetch value of viability, T/C on 485176-168-R4-J1-PDC spheroids with HUVEC/MSC, viability for COc1cc(C2c3cc4c(cc3C(OC3OC5COC(C)OC5C(O)C3O)C3COC(=O)C23)OCO4)cc(OC)c1O (configuration not stated) + Cc1cnc(CNC(=O)c2c(=O)c3ccc(N4CCCN(C)CC4)nc3n3c2sc2ccccc23)cn1 .
a: 38.1

q: Fetch value of viability, T/C on 485176-168-R4-J1-PDC spheroids with HUVEC/MSC, viability for CC1COCCN1c1cc(C2(S(C)(=N)=O)CC2)nc(-c2ccnc3[nH]ccc23)n1 (configuration not stated) + CN(C)c1ccc(Nc2c3ccc(NC(=O)CCN4CCCC4)cc3nc3cc(NC(=O)CCN4CCCC4)ccc23)cc1 .
a: 75

q: Fetch value of viability, T/C on 485176-168-R4-J1-PDC spheroids with HUVEC/MSC, viability for COc1ccc([C@@H](O)c2cc(-c3ncnc4cc(N5CCOCC5)ccc34)c(F)cc2Cl)nn1 + Cc1cnc(CNC(=O)c2c(=O)c3ccc(N4CCCN(C)CC4)nc3n3c2sc2ccccc23)cn1 .
a: 48.5

q: Fetch value of viability, T/C on 485176-168-R4-J1-PDC spheroids with HUVEC/MSC, viability for Cc1cccc(N(C)C(=O)C2C(O)CCN2c2nc(C)cc(C(F)(F)F)c2C#N)c1 (configuration not stated) + Cc1[nH]c2ccc(F)cc2c1-c1nc2c3cccnc3c3ncccc3c2[nH]1 .
a: 89

q: Fetch value of viability, T/C on 485176-168-R4-J1-PDC spheroids with HUVEC/MSC, viability for C=CCn1c(=O)c2cnc(Nc3ccc(N4CCN(C)CC4)cc3)nc2n1-c1cccc(C(C)(C)O)n1 + Cc1[nH]c2ccc(F)cc2c1-c1nc2c3cccnc3c3ncccc3c2[nH]1 .
a: 22.6

q: Fetch value of viability, T/C on 485176-168-R4-J1-PDC spheroids with HUVEC/MSC, viability for CC(C)(O)C1CCC(Nc2ccc3ncc(-c4cccc(C(F)(F)F)c4)n3n2)CC1 (configuration not stated) + Cc1[nH]c2ccc(F)cc2c1-c1nc2c3cccnc3c3ncccc3c2[nH]1 .
a: 81.3

q: Fetch value of viability, T/C on 485176-168-R4-J1-PDC spheroids with HUVEC/MSC, viability for COc1cc(C2c3cc4c(cc3C(OC3OC5COC(C)OC5C(O)C3O)C3COC(=O)C23)OCO4)cc(OC)c1O (configuration not stated) + CN(C)c1ccc(Nc2c3ccc(NC(=O)CCN4CCCC4)cc3nc3cc(NC(=O)CCN4CCCC4)ccc23)cc1 .
a: 39.6

q: Fetch value of viability, T/C on 485176-168-R4-J1-PDC spheroids with HUVEC/MSC, viability for CC1COCCN1c1cc(C2(S(C)(=N)=O)CC2)nc(-c2ccnc3[nH]ccc23)n1 (configuration not stated) + Cc1cnc(CNC(=O)c2c(=O)c3ccc(N4CCCN(C)CC4)nc3n3c2sc2ccccc23)cn1 .
a: 44.8

q: Fetch value of viability, T/C on 485176-168-R4-J1-PDC spheroids with HUVEC/MSC, viability for Nc1ccn(C2OC(CO)C(O)C2(F)F)c(=O)n1 (configuration not stated) + CN(C)c1ccc(Nc2c3ccc(NC(=O)CCN4CCCC4)cc3nc3cc(NC(=O)CCN4CCCC4)ccc23)cc1 .
a: 9.81

q: Fetch value of viability, T/C on 485176-168-R4-J1-PDC spheroids with HUVEC/MSC, viability for CC(C)(O)C1CCC(Nc2ccc3ncc(-c4cccc(C(F)(F)F)c4)n3n2)CC1 (configuration not stated) + Cc1cnc(CNC(=O)c2c(=O)c3ccc(N4CCCN(C)CC4)nc3n3c2sc2ccccc23)cn1 .
a: 67

q: Fetch value of viability, T/C on 485176-168-R4-J1-PDC spheroids with HUVEC/MSC, viability for O=C(c1cc(Cc2n[nH]c(=O)c3ccccc23)ccc1F)N1CCN(C(=O)C2CC2)CC1 + CN(C)c1ccc(Nc2c3ccc(NC(=O)CCN4CCCC4)cc3nc3cc(NC(=O)CCN4CCCC4)ccc23)cc1 .
a: 103

q: Fetch value of viability, T/C on 485176-168-R4-J1-PDC spheroids with HUVEC/MSC, viability for CC(C)n1c(=O)n(C)c2cnc3cc(F)c(-c4ccc(OCCCN5CCCCC5)nc4)cc3c21 + Cc1cnc(CNC(=O)c2c(=O)c3ccc(N4CCCN(C)CC4)nc3n3c2sc2ccccc23)cn1 .
a: 59.2

q: Fetch value of viability, T/C on 485176-168-R4-J1-PDC spheroids with HUVEC/MSC, viability for CC1COCCN1c1cc(-c2ccnn2C)c2ccnc(-c3ccn[nH]3)c2n1 (configuration not stated) + CN(C)c1ccc(Nc2c3ccc(NC(=O)CCN4CCCC4)cc3nc3cc(NC(=O)CCN4CCCC4)ccc23)cc1 .
a: 11.2

Origin of measurements: PubChem BioAssay AID2060509
